These entries and their values trace back to patent US9526785B2.

assay: Tigecycline plasma PK and % F after intraduodenal (ID) injection in anesthetized rats; type: in vivo, Sprague-Dawley Rats; settings: female, Sprague-Dawley, rat, plasma, other: intraduodenal bolus injection, 9 mg/kg, pH 3.5, ID, 400 mM CA (pH 3.5), 26 mM LLC, 9.0 mg/kg (RA853), parent Tigecycline peak only; 20 min
RESULT_TYPE: concentration at 20 min (ng/mL)
Write the answer as a number in ng/mL, unit excluded.

For the compound shown here, CN(C)c1cc(NC(=O)CNC(C)(C)C)c(O)c2c1C[C@H]1C[C@H]3[C@H](N(C)C)C(O)=C(C(N)=O)C(=O)[C@@]3(O)C(O)=C1C2=O , give the reported concentration at 20 min. 2160
